Assay: Anticancer human tumor 997537-175-T-J1-PDC patient-derived colon adenocarcinoma cell line growth inhibition [POLQ]
Details: 997537-175-T-J1-PDC complex spheroid viability, combination with POLQ inhibitors; second compound 3.16 µM; first compound 3.16 µM; active compounds read low
Observation type: viability, T/C

stdin: Param item = C#Cc1c(F)ccc2cc(O)cc(-c3ncc4c(N5CC6CCC(C5)N6)nc(OCC56CCCN5CC(F)C6)nc4c3F)c12 (stereo not drawn) + Nc1ccc(C#CCN(C(=O)Cc2ncc(C(F)(F)F)cc2C(F)(F)F)c2ccc(F)cc2)nn1 ; retrieve measured viability, T/C.
stdout: 104%

stdin: Param item = CCc1cc2c(N3CCc4c(cc(Cn5ccnc5)cc4-c4cn(C)nc4C(F)(F)F)C3=O)cc(C)nc2c(OC)n1 + Nc1ccc(C#CCN(C(=O)Cc2ncc(C(F)(F)F)cc2C(F)(F)F)c2ccc(F)cc2)nn1 ; retrieve measured viability, T/C.
stdout: 65.4%

stdin: Param item = C#Cc1c(F)ccc2cc(O)cc(-c3ncc4c(N5CC6CCC(C5)N6)nc(OCC56CCCN5CC(F)C6)nc4c3F)c12 (stereo not drawn) + COC1C(OC(N)=O)C(O)C(Oc2ccc3c(O)c(NC(=O)c4ccc(O)c(CC=C(C)C)c4)c(=O)oc3c2C)OC1(C)C ; retrieve measured viability, T/C.
stdout: 119%

====

Assay: Anticancer human tumor 997537-175-T-J1-PDC cell line growth inhibition [POLQ];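 also: luminescence signal used as a surrogate for viable cells; spheroids exposed to drugs for seven days before readout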
Settings: 997537-175-T-J1-PDC complex spheroid viability, combination with POLQ inhibitors; second compound 1 µM; first compound 0.0316 µM; active compounds read low
Observation type: viability, T/C (%)
// note: answer is a bare numeric in %

stdin: Param item = Nc1ccn(C2OC(CO)C(O)C2(F)F)c(=O)n1 (stereo unspecified) + Nc1ccc(C#CCN(C(=O)Cc2ncc(C(F)(F)F)cc2C(F)(F)F)c2ccc(F)cc2)nn1 ; retrieve measured viability, T/C.
stdout: 102

stdin: Param item = CC(C)n1c(=O)n(C)c2cnc3cc(F)c(-c4ccc(OCCCN5CCCCC5)nc4)cc3c21 + Cc1cccc(N(C)C(=O)C2C(O)CCN2c2nc(C)cc(C(F)(F)F)c2C#N)c1 ; retrieve measured viability, T/C.
stdout: 87.2

stdin: Param item = O=c1[nH]cc(F)c(=O)[nH]1 + Nc1ccc(C#CCN(C(=O)Cc2ncc(C(F)(F)F)cc2C(F)(F)F)c2ccc(F)cc2)nn1 ; retrieve measured viability, T/C.
stdout: 94.2

stdin: Param item = CCc1cc2c(N3CCc4c(cc(Cn5ccnc5)cc4-c4cn(C)nc4C(F)(F)F)C3=O)ccnc2c(OC)n1 + Nc1ccc(C#CCN(C(=O)Cc2ncc(C(F)(F)F)cc2C(F)(F)F)c2ccc(F)cc2)nn1 ; retrieve measured viability, T/C.
stdout: 103

stdin: Param item = CC1COCCN1c1cc(C2(S(C)(=N)=O)CC2)nc(-c2ccnc3[nH]ccc23)n1 (stereo unspecified) + Cc1cccc(N(C)C(=O)C2C(O)CCN2c2nc(C)cc(C(F)(F)F)c2C#N)c1 ; retrieve measured viability, T/C.
stdout: 106

stdin: Param item = C#Cc1c(F)ccc2cc(O)cc(-c3ncc4c(N5CC6CCC(C5)N6)nc(OCC56CCCN5CC(F)C6)nc4c3F)c12 (stereo unspecified) + Cc1cccc(N(C)C(=O)C2C(O)CCN2c2nc(C)cc(C(F)(F)F)c2C#N)c1 ; retrieve measured viability, T/C.
stdout: 109

stdin: Param item = O=C(c1cc(Cc2n[nH]c(=O)c3ccccc23)ccc1F)N1CCN(C(=O)C2CC2)CC1 + Cc1cccc(N(C)C(=O)C2C(O)CCN2c2nc(C)cc(C(F)(F)F)c2C#N)c1 ; retrieve measured viability, T/C.
stdout: 99.1

stdin: Param item = C=CC(=O)N1CCN(c2nc(=O)n(-c3c(C)ccnc3C(C)C)c3nc(-c4c(O)cccc4F)c(F)cc23)C(C)C1 (stereo unspecified) + COC1C(OC(N)=O)C(O)C(Oc2ccc3c(O)c(NC(=O)c4ccc(O)c(CC=C(C)C)c4)c(=O)oc3c2C)OC1(C)C ; retrieve measured viability, T/C.
stdout: 106

stdin: Param item = CCc1cc2c(N3CCc4c(cc(Cn5ccnc5)cc4-c4cn(C)nc4C(F)(F)F)C3=O)ccnc2c(OC)n1 + COC1C(OC(N)=O)C(O)C(Oc2ccc3c(O)c(NC(=O)c4ccc(O)c(CC=C(C)C)c4)c(=O)oc3c2C)OC1(C)C ; retrieve measured viability, T/C.
stdout: 113

stdin: Param item = COc1ccc([C@@H](O)c2cc(-c3ncnc4cc(N5CCOCC5)ccc34)c(F)cc2Cl)nn1 + Nc1ccc(C#CCN(C(=O)Cc2ncc(C(F)(F)F)cc2C(F)(F)F)c2ccc(F)cc2)nn1 ; retrieve measured viability, T/C.
stdout: 96

stdin: Param item = Nc1ccn(C2OC(CO)C(O)C2(F)F)c(=O)n1 (stereo unspecified) + Cc1cccc(N(C)C(=O)C2C(O)CCN2c2nc(C)cc(C(F)(F)F)c2C#N)c1 ; retrieve measured viability, T/C.
stdout: 91.8

====

Assay: Anticancer human tumor 997537-175-T-J1-PDC cell line growth inhibition [POLQ]; active means viability on the fitted dose curve at most 10% of control; inactive means the rest;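 also: luminescence signal used as a surrogate for viable cells; spheroids exposed to drugs for seven days before readout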
Settings: 997537-175-T-J1-PDC complex spheroid viability, combination with POLQ inhibitors; second compound 10 µM; first compound 1 µM
Description: Multicellular complex tumor spheroid response to Polymerase (POL) inhibitors (novobiocin, ART-558, RP6685) in combination with a variety of drugs and investigational agents in selected tumor cell lines The POL inhibitors (novobiocin, ART-558, and RP6685) were evaluated both individually and in combination with standard of care and investigational anticancer small molecules within a complex spheroid model of solid tumors. . […]
Entry note: the call must match one of active, inactive

stdin: Recorded call for COc1cc2cc(C(=O)CCC(=O)O)sc2cc1OC + Cc1cccc(N(C)C(=O)C2C(O)CCN2c2nc(C)cc(C(F)(F)F)c2C#N)c1 ?
stdout: inactive

stdin: Recorded call for CCc1c2c(nc3ccc(O)cc13)-c1cc3c(c(=O)n1C2)COC(=O)[C@]3(O)CC + Nc1ccc(C#CCN(C(=O)Cc2ncc(C(F)(F)F)cc2C(F)(F)F)c2ccc(F)cc2)nn1 ?
stdout: active

stdin: Recorded call for C=CC(=O)N1CCN(c2nc(=O)n(-c3c(C)ccnc3C(C)C)c3nc(-c4c(O)cccc4F)c(F)cc23)C(C)C1 (stereo unspecified) + Cc1cccc(N(C)C(=O)C2C(O)CCN2c2nc(C)cc(C(F)(F)F)c2C#N)c1 ?
stdout: inactive

stdin: Recorded call for C=CCn1c(=O)c2cnc(Nc3ccc(N4CCN(C)CC4)cc3)nc2n1-c1cccc(C(C)(C)O)n1 + COC1C(OC(N)=O)C(O)C(Oc2ccc3c(O)c(NC(=O)c4ccc(O)c(CC=C(C)C)c4)c(=O)oc3c2C)OC1(C)C ?
stdout: inactive

stdin: Recorded call for CC1COCCN1c1cc(-c2ccnn2C)c2ccnc(-c3ccn[nH]3)c2n1 (stereo unspecified) + Cc1cccc(N(C)C(=O)C2C(O)CCN2c2nc(C)cc(C(F)(F)F)c2C#N)c1 ?
stdout: inactive

stdin: Recorded call for CC1COCCN1c1cc(-c2ccnn2C)c2ccnc(-c3ccn[nH]3)c2n1 (stereo unspecified) + Nc1ccc(C#CCN(C(=O)Cc2ncc(C(F)(F)F)cc2C(F)(F)F)c2ccc(F)cc2)nn1 ?
stdout: inactive

stdin: Recorded call for C=CC(=O)N1CCN(c2nc(=O)n(-c3c(C)ccnc3C(C)C)c3nc(-c4c(O)cccc4F)c(F)cc23)C(C)C1 (stereo unspecified) + COC1C(OC(N)=O)C(O)C(Oc2ccc3c(O)c(NC(=O)c4ccc(O)c(CC=C(C)C)c4)c(=O)oc3c2C)OC1(C)C ?
stdout: inactive

stdin: Recorded call for COc1cc(C2c3cc4c(cc3C(OC3OC5COC(C)OC5C(O)C3O)C3COC(=O)C23)OCO4)cc(OC)c1O (stereo unspecified) + Cc1cccc(N(C)C(=O)C2C(O)CCN2c2nc(C)cc(C(F)(F)F)c2C#N)c1 ?
stdout: inactive

stdin: Recorded call for CCCS(=O)(=O)Nc1ccc(F)c(C(=O)c2c[nH]c3ncc(-c4ccc(Cl)cc4)cc23)c1F + Nc1ccc(C#CCN(C(=O)Cc2ncc(C(F)(F)F)cc2C(F)(F)F)c2ccc(F)cc2)nn1 ?
stdout: inactive

stdin: Recorded call for CNCc1ccc(-c2[nH]c3cc(F)cc4c3c2CCNC4=O)cc1 + Cc1cccc(N(C)C(=O)C2C(O)CCN2c2nc(C)cc(C(F)(F)F)c2C#N)c1 ?
stdout: inactive

stdin: Recorded call for O=C(c1cc(Cc2n[nH]c(=O)c3ccccc23)ccc1F)N1CCN(C(=O)C2CC2)CC1 + COC1C(OC(N)=O)C(O)C(Oc2ccc3c(O)c(NC(=O)c4ccc(O)c(CC=C(C)C)c4)c(=O)oc3c2C)OC1(C)C ?
stdout: inactive

====

Experiment: Anticancer human tumor 997537-175-T-J1-PDC cell line growth inhibition [POLQ];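 also: luminescence signal used as a surrogate for viable cells; spheroids exposed to drugs for seven days before readout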
Details: 997537-175-T-J1-PDC complex spheroid viability, combination with POLQ inhibitors; second compound 10 µM; first compound 0.01 µM; active compounds read low
Observation type: viability, T/C (%)
// note: answer is a bare numeric in %

stdin: Param item = COc1cccc(OCCCN)c1-c1cc(Nc2cnc(C#N)cn2)n[nH]1 + Cc1cccc(N(C)C(=O)C2C(O)CCN2c2nc(C)cc(C(F)(F)F)c2C#N)c1 ; retrieve measured viability, T/C.
stdout: 73.6

stdin: Param item = C=CCn1c(=O)c2cnc(Nc3ccc(N4CCN(C)CC4)cc3)nc2n1-c1cccc(C(C)(C)O)n1 + Cc1cccc(N(C)C(=O)C2C(O)CCN2c2nc(C)cc(C(F)(F)F)c2C#N)c1 ; retrieve measured viability, T/C.
stdout: 99.5

stdin: Param item = COc1cccc(OCCCN)c1-c1cc(Nc2cnc(C#N)cn2)n[nH]1 + COC1C(OC(N)=O)C(O)C(Oc2ccc3c(O)c(NC(=O)c4ccc(O)c(CC=C(C)C)c4)c(=O)oc3c2C)OC1(C)C ; retrieve measured viability, T/C.
stdout: 79.8

Where these numbers come from: PubChem BioAssay AID1963825
